test: Compartmental PK modelling and repeat-dose simulation; set-up: species or system mice; conditions: mouse, plasma, po, 25 mg/kg, mice, 25 mg/kg bid, 5 days, simulated

smiles_data	units	Cmax at 5 days
Cc1[nH]c2nc(N)nc(C)c2c1-c1ccc(C#N)c2c1OCO2	ng/mL	11700

---

test: In vivo pharmacokinetics; design: species or system female BALB/c mice; details: female, BALB/c, mouse, plasma; mice, oral 7.1 mg/kg bid, 5 days; read-out: AUC96-120 (last dose)
measure: AUC

molecule	measure	endpoint_result
Cc1[nH]c2nc(N)nc(C)c2c1-c1ccc(C#N)c2c1OCO2 [DNDI-6174]	AUC	37000 ng·h/mL

---

assay: In vitro metabolism, liver microsomes; format: in vitro ADME, dog; conditions: dog, liver microsomes, pH 7.4, Dog; 2 independent experiments; read-out: In vitro Microsome CLint

compound	units	microsomal CLint at 0.5 µM
Cc1[nH]c2nc(N)nc(C)c2c1-c1ccc(C#N)c2c1OCO2 [DNDI-6174]	µL/min/mg	8.3

---

assay: Plasma protein binding (rapid equilibrium dialysis); type: in vitro ADME; conditions: golden Syrian, hamster, diluted to 10% in PBS, pH 7.4
measure: fraction unbound at 24 h

smiles_data	endpoint_result
Cc1[nH]c2nc(N)nc(C)c2c1-c1ccc(C#N)c2c1OCO2	0.09

---

target: hERG (Homo sapiens, UniProt Q12809); assay: In vitro pharmacology panel (Eurofins); design: purchased Eurofins (Cerep/DiscoverX SafetyScreen44 in vitro pharmacology panel); conditions: human hERG potassium channel, [3H]dofetilide binding assay, probe [3H] Dofetilide, read-out: activity (% of DMSO control)
Sequence (Q12809 whole entry): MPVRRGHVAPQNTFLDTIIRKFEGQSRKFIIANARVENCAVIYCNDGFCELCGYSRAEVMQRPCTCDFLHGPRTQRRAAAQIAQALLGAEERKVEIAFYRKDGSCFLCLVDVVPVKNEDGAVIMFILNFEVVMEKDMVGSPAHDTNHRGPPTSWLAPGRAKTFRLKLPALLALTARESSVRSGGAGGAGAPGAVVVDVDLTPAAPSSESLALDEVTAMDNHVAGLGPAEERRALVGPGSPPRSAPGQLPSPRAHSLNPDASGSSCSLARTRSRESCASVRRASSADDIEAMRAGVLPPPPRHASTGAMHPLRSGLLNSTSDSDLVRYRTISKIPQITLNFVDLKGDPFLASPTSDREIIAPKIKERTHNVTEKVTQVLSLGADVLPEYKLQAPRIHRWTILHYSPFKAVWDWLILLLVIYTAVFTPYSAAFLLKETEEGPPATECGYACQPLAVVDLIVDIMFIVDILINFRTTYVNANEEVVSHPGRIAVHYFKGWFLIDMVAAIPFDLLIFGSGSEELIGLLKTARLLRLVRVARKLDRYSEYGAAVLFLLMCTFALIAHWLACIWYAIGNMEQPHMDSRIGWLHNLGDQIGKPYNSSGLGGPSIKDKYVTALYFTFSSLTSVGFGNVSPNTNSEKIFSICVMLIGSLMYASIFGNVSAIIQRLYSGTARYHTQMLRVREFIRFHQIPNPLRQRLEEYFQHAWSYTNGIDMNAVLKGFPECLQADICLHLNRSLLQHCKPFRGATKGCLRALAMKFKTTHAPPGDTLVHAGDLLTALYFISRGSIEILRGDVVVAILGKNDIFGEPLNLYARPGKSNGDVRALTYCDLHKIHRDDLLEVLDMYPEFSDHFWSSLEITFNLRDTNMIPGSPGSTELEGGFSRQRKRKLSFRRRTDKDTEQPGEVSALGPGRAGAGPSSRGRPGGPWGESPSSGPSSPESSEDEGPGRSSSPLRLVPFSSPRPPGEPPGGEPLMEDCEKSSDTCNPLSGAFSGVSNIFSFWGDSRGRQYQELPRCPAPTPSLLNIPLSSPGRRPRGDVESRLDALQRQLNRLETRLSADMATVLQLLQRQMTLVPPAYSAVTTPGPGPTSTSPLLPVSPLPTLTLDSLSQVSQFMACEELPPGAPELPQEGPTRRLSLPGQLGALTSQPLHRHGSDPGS

smiles_data	units	activity at 10 µM
Cc1[nH]c2nc(N)nc(C)c2c1-c1ccc(C#N)c2c1OCO2	%	94.2

---

test: In vivo pharmacokinetics; design: species or system male beagle dogs; conditions: male, beagle, dog, plasma; dogs, single oral 30 mg/kg

smiles_data	Tmax
Cc1[nH]c2nc(N)nc(C)c2c1-c1ccc(C#N)c2c1OCO2	3.33 h

---

target: PDE3A (Homo sapiens, UniProt Q14432)
Sequence (Q14432 whole entry): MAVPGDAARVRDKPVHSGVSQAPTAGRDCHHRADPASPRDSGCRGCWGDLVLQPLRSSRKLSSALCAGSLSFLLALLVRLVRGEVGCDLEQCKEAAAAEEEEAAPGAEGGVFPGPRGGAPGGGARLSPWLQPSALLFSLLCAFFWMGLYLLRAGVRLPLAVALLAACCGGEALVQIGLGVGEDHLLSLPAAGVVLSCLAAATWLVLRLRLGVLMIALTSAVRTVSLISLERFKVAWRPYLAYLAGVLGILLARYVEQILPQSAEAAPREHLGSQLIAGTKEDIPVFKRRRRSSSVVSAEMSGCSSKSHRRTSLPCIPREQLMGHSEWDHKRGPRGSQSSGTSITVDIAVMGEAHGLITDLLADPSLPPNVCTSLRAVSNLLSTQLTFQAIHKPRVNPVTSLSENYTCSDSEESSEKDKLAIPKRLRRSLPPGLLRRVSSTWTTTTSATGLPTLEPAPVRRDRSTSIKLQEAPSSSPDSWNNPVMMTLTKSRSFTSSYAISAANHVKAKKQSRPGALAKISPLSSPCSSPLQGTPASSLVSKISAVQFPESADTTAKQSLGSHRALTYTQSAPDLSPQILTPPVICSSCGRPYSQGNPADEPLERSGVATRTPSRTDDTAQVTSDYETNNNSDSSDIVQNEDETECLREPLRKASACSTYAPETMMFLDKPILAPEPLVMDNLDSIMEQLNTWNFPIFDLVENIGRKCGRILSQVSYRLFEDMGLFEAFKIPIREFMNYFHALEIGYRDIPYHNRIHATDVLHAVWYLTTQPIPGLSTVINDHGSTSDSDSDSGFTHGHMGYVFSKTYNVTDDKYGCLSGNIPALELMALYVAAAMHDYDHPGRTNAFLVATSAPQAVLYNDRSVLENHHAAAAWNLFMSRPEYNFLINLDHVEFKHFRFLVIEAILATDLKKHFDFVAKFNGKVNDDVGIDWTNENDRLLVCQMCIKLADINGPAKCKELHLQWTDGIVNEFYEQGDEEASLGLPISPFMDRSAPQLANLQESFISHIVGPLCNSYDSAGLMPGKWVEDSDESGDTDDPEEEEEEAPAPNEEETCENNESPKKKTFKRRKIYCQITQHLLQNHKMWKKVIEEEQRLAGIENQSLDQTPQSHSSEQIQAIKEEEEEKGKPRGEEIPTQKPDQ

compound	assay_target	IC50, µM
Cc1[nH]c2nc(N)nc(C)c2c1-c1ccc(C#N)c2c1OCO2 [DNDI-6174]	PDE3A (Homo sapiens, UniProt Q14432)	3.36

---

test: Human PK and dose prediction (IVIVE, allometry, GastroPlus PBPK); settings: plasma, 4 ug, read-out: target cumulative total human plasma AUC

smiles_data	AUC, ng·h/mL
Cc1[nH]c2nc(N)nc(C)c2c1-c1ccc(C#N)c2c1OCO2	60000

---

Test: In vivo pharmacokinetics
Parameters: species or system female golden Syrian hamsters
Settings: female, golden Syrian, hamster, plasma; hamsters, oral 50 mg/kg, single dose on day 1 only; read-out: Cmax (Day 1)
Method: Additional PK studies were also conducted by WuXi AppTec Co, Ltd (Shanghai, China) according to protocols reviewed and approved by DNDi. […] IV and oral formulations for rats, mice and hamsters were the same as described above. For dogs, the IV dose was administered in saline containing 2% DMSO and 3% Solutol HS-15 and the oral formulation was as described above. […]
measure: Cmax (ng/mL)

compound	measure	endpoint_result
Cc1[nH]c2nc(N)nc(C)c2c1-c1ccc(C#N)c2c1OCO2 [DNDI-6174]	Cmax	13200

---

Assay: Compartmental PK modelling and repeat-dose simulation
Set-up: species or system hamsters
Conditions: hamster, plasma, po; Hamsters, 12.5 mg/kg, fitted
Protocol: To support pharmacokinetic/pharmacodynamic (PKPD) analysis, data in mice and hamsters were also analyzed by compartmental modeling using Phoenix WinNonlin (version 8.2; Certara, Princeton, NJ). For each dose level, an extravascular dosing, single compartment disposition model was fit to the combined Day 1/Day 5 repeat dose plasma data. The model was parameterized with a single volume term (V/F), and with first order absorption (K01) and elimination (K10) rate constants. […]
measure: AUC(0-inf) (ng·h/mL)

smiles_data	measure	endpoint_result
Cc1[nH]c2nc(N)nc(C)c2c1-c1ccc(C#N)c2c1OCO2	AUC(0-inf)	23600

---

assay: In vivo pharmacokinetics; set-up: species or system female golden Syrian hamsters; conditions: female, golden Syrian, hamster, plasma; hamsters, oral 12.5 mg/kg qd, 5 days

compound	units	Cmax at 5 days
Cc1[nH]c2nc(N)nc(C)c2c1-c1ccc(C#N)c2c1OCO2 [DNDI-6174]	ng/mL	3530

---

assay: In vivo pharmacokinetics; design: species or system male Sprague Dawley rats; conditions: male, Sprague Dawley, rat, plasma; rats, single oral 50 mg/kg

compound	Cmax, ng/mL
Cc1[nH]c2nc(N)nc(C)c2c1-c1ccc(C#N)c2c1OCO2 [DNDI-6174]	14200

---

assay: In vitro cytotoxicity assay; format: cell-based; conditions: human, HepG2 human hepatocellular carcinoma cells

smiles_data	CC50
Cc1[nH]c2nc(N)nc(C)c2c1-c1ccc(C#N)c2c1OCO2	> 64 µM

---

assay: In vivo pharmacokinetics; parameters: species or system male beagle dogs; settings: male, beagle, dog, plasma, po, 30 mg/kg, dogs, single oral 30 mg/kg; read-out: T1/2 (converted)
measure: half-life (h)

smiles_data	measure	units	endpoint_result
Cc1[nH]c2nc(N)nc(C)c2c1-c1ccc(C#N)c2c1OCO2	half-life	h	14.4

---

assay: In vitro cytotoxicity assay; type: cell-based; details: monkey, Vero monkey kidney epithelial cells

smiles_data	CC50
Cc1[nH]c2nc(N)nc(C)c2c1-c1ccc(C#N)c2c1OCO2	> 50 µM

---

test: In vivo pharmacokinetics; set-up: species or system male Sprague Dawley rats; conditions: male, Sprague Dawley, rat, plasma; rats, single oral 300 mg/kg

smiles_data	units	Tmax
Cc1[nH]c2nc(N)nc(C)c2c1-c1ccc(C#N)c2c1OCO2	h	27

---

test: Compartmental PK modelling and repeat-dose simulation; set-up: species or system hamsters; conditions: hamster, plasma, po, 12.5 mg/kg, hamsters, 12.5 mg/kg bid, 5 days, simulated

smiles_data	Cmax
Cc1[nH]c2nc(N)nc(C)c2c1-c1ccc(C#N)c2c1OCO2	3690 ng/mL

---

Tested on: L. infantum
Assay: Leishmania intramacrophage in vitro assay
Type: cell-based
Conditions: L. infantum MHOM/FR/96/LEM3323
Protocol: A drug incubation period of 96 h was applied, and cells were stained with Giemsa for microscopic evaluation of cellular amastigote burdens. Percentage reduction compared to the burden in the infected non-treated control wells was used as a measure for drug activity.
pEC50: −log10 of the molar value.
measure: pEC50

compound	endpoint_result
Cc1[nH]c2nc(N)nc(C)c2c1-c1ccc(C#N)c2c1OCO2 [DNDI-6174]	7.30

---

experiment: In vivo pharmacokinetics; parameters: species or system female BALB/c mice; details: female, BALB/c, mouse, plasma, iv, 2 mg/kg, Mouse; read-out: Measured in vivo CLplasma
measure: clearance (mL/min/kg)

smiles_data	measure	units	endpoint_result
Cc1[nH]c2nc(N)nc(C)c2c1-c1ccc(C#N)c2c1OCO2	clearance	mL/min/kg	7.5

---

molecular target: hERG (Homo sapiens, UniProt Q12809); assay: hERG channel test (Qpatch / Qube); type: cell-based; set-up: host or cells: Chinese hamster ovary cells; settings: Qpatch hERG, 1 μM

smiles_data	units	inhibition at 1 µM
Cc1[nH]c2nc(N)nc(C)c2c1-c1ccc(C#N)c2c1OCO2	%	3.81

---

assay: In vivo pharmacokinetics; parameters: species or system female golden Syrian hamsters; settings: female, golden Syrian, hamster, plasma; hamsters, oral 25 mg/kg qd, 5 days; read-out: AUC0-24 (first dose)

smiles_data	AUC(0-t)
Cc1[nH]c2nc(N)nc(C)c2c1-c1ccc(C#N)c2c1OCO2	44200 ng·h/mL

---

experiment: In vivo pharmacokinetics; set-up: species or system male Sprague Dawley rats; conditions: male, Sprague Dawley, rat, plasma, iv, 3 mg/kg, Rat, intravenous 3.0 mg/kg, Monash University; read-out: Apparent t1/2 (converted)
measure: half-life (h)

smiles_data	endpoint_result
Cc1[nH]c2nc(N)nc(C)c2c1-c1ccc(C#N)c2c1OCO2	7.9

---

test: In vivo pharmacokinetics; set-up: species or system female BALB/c mice; conditions: female, BALB/c, plasma; Mouse, oral 25 mg/kg

smiles_data	Tmax
Cc1[nH]c2nc(N)nc(C)c2c1-c1ccc(C#N)c2c1OCO2	1 h

---

target: CYP2C19 (Homo sapiens, UniProt P33261); construct: incubation of isoform-specific substrates with human liver microsomes; from tissue; host or cells: human liver microsomes; experiment: Cytochrome P450 inhibition, human liver microsomes; type: in vitro ADME; conditions: without NADPH preincubation; read-out: Time-dependent inhibition IC50
Sequence (P33261 whole entry, canonical isoform): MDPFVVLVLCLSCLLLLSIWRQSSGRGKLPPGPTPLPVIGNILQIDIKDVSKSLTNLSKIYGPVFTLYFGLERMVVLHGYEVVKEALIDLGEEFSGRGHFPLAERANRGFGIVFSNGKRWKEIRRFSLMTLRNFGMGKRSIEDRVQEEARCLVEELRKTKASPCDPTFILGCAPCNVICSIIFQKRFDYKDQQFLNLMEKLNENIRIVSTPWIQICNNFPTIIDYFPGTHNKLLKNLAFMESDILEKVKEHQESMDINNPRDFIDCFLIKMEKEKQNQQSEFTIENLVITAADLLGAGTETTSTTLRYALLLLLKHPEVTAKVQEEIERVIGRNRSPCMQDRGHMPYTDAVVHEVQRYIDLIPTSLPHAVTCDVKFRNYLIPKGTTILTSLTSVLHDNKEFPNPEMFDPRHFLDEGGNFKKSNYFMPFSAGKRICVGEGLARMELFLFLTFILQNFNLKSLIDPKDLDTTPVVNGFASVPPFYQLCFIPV
pIC50: −log10 of the molar value.

molecule	pIC50
Cc1[nH]c2nc(N)nc(C)c2c1-c1ccc(C#N)c2c1OCO2 [DNDI-6174]	4.87

---

assay: Compartmental PK modelling and repeat-dose simulation; parameters: species or system hamsters; settings: hamster, plasma, po, 25 mg/kg, Hamsters, fitted

smiles_data	units	Cmax
Cc1[nH]c2nc(N)nc(C)c2c1-c1ccc(C#N)c2c1OCO2	ng/mL	5280
